# assay_target: T1, human BCMA (B cell maturation antigen) (human, UniProt Q02223 1-184)
# T1 construct: whole, on cells; also called hBCMA; TNFRSF17
# T1 sequence (looked up): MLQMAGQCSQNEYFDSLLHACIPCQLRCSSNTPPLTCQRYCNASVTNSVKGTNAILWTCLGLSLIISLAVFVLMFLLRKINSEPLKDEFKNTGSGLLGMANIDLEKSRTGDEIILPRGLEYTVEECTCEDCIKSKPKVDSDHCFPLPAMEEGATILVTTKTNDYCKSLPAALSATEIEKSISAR
# procedure_details: flow cytometry, FN3 domain titration on HEK293F cells transiently expressing human BCMA, anti-His Alexa-488 detection, PRISM one-site specific binding fit
Please provide measured pKd for the entries that follow.
Numbers only, as −log10 of the molar value.

Sample answers from the record:
binder="B03 BCMA-specific FN3 domain (designed binder, Detected with an anti-His mAb, so the protein tested carried a His tag) MLPAPKNLVVSRITEDSARLSWTAPDAAFDSFPIRYIETLIWGEAIWLDVPGSERSYDLTGLKPGTEYTVVIDGVKGGGRSQPLVATFTT" measure=pKd val=8.06
binder="E09 BCMA-specific FN3 domain (designed binder, Detected with an anti-His mAb, so the protein tested carried a His tag) MLPAPKNLVVSRVTEDSARLSWTAPDAAFDSFRIRYVEVIAWGEAIWLVVPGSERSYDLTGLKPGTEYVVVIDGVKGGKTSIPLIAHFTT" measure=pKd val=6.89
binder="A08 BCMA-specific FN3 domain (designed binder, Detected with an anti-His mAb, so the protein tested carried a His tag) MLPAPKNLVVSRITEDSARLSWTAPDAAFDSFPIRYIETLIWGEAIWLDVPGSERSYDLTGLKPGTEYAVVITGVKGGRFSSPLVASFTT" measure=pKd val=5.52
binder="F11 BCMA-specific FN3 domain (designed binder, Detected with an anti-His mAb, so the protein tested carried a His tag) MLPAPKNLVVSRVTEDSARLSWTAPDAAFDSFPIRYIETLIWGEAIWLDVPGSERSYDLTGLKPGTEYVVVIDGVKGGDHSKPLVATFTT" measure=pKd val=8.38
binder="G10 BCMA-specific FN3 domain (designed binder, Detected with an anti-His mAb, so the protein tested carried a His tag) MLPAPKNLVVSRVTEDSARLSWIAPDAAFDSFIIVYRENIETGEAIVLTVPGSERSYDLTGLKPGTEYYVQIAGVKGGNISFPLSAIFTT" measure=pKd val=7.12
binder="C08 BCMA-specific FN3 domain (designed binder, Detected with an anti-His mAb, so the protein tested carried a His tag) MLPAPKNLVVSRITEDSARLSWTAPDAAFDSFPIRYIETLIWGEAIWLYVPGSERSYDLTGLKPGTEYTVVISGVKGGESSYPLIAAFTT" measure=pKd val=7.64
binder="A12 BCMA-specific FN3 domain (designed binder, Detected with an anti-His mAb, so the protein tested carried a His tag) MLPAPKNLVVSRITEDSARLSWTAPDAAFDSFTIKYIERATWGEAIWLNVPGSERSYDLTGLKPGTEYVVLINGVKGGPESWPLIAHFTT" measure=pKd val=7.66
binder="D08 BCMA-specific FN3 domain (designed binder, Detected with an anti-His mAb, so the protein tested carried a His tag) MLPAPKNLVVSHVTEDSARLSWTAPDAAFDSFIIVYRENIETGEAIVLTVPGSERSYDLTDLKPGTEYYVQIAGVKGGNISFPLSAIFTT" measure=pKd val=6.64

Exercise: I have this binder here, F01 BCMA-specific FN3 domain (designed binder, Detected with an anti-His mAb, so the protein tested carried a His tag) MLPAPKNLVVSRVTEDSARLSWTAPDAAFDSFIIVYRENIETGEAIVLTVPGSERSYDLTGLKPGTEYYVQIAGVKGGNISFPLSAIFTT , and I need its recorded pKd.
Key: 6.28

Data credit: patent US20220031822A1
